# maps each entry to its FACS-Seq fitted mean (log10)
B1: library; a variant is named by its letters at N, in order (parent)
chain: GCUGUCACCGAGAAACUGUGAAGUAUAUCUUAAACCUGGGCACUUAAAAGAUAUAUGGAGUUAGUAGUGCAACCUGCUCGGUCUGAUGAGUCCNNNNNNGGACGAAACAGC

Variants of: B1
Experiment: FACS-Seq fitted mean relative fluorescence mCherry/BFP with ligand (log10 relative fluorescence); HEK293T; ligand: cyclic di-GMP (c-di-GMP-II aptamer); ligand concentration (+) FACS-Seq: 1 mM; higher = higher reporter protein expression
Details: ligand present: yes
Returns: the value as a bare number; no unit string appended.

GUGCAU ... -0.302

In: Value lookup for FACS-Seq fitted mean (log10); key = `GCCAAU`
Out: -0.105

In: What value of measured FACS-Seq fitted mean (log10) is listed for `CACGUG` ?
Out: -0.148
